method-description: Whole blood stability, mouse
Type: in vitro ADME
test-conditions: 60 min
Excerpt: The results of the assay on stability in blood and IC50 values for pancreatic cancer cell line KP4 are given below in Table 24.
observed-property: Whole Blood Stability % Remaining at 37° C. Mouse (%)

# example entries with known answers
CN(C)C(=O)[C@H]1Cc2c([nH]c3ccccc23)[C@H](c2ccc(S(C)(=O)=O)cc2)N1C(=O)CCl :: 65.6
[2H]C([2H])([2H])OC(=O)[C@H]1Cc2c([nH]c3ccccc23)[C@H](c2ccc(C(=O)OC)cc2)N1C(=O)CCl :: 0.0
COC(=O)[C@H]1Cc2c([nH]c3ccccc23)[C@H](C23CC(C(=O)OC)(C2)C3)N1C(=O)CCl :: 0.0
COC(=O)c1ccc([C@H]2c3[nH]c4cc(Br)ccc4c3C[C@H](C(=O)OC)N2C(=O)CCl)cc1 :: 0.0

(I) COC(=O)C1CCC([C@H]2c3[nH]c4ccccc4c3C[C@H](C(=O)N(C)C)N2C(=O)CCl)CC1 (stereo partly shown)
(II) COC(=O)[C@H]1Cc2c([nH]c3ccccc23)[C@@H](c2ccc(S(=O)(=O)N(C)C)cc2)N1C(=O)CCl [Compound 23a]
(III) COC(=O)[C@H]1Cc2c([nH]c3ccccc23)[C@H](c2ccc(C(=O)NCCN)cc2)N1C(=O)CCl
Prompt line: Which order do these items take when sorted by rising Whole Blood Stability % Remaining at 37° C. Mouse? List them. Answer format: list of labels, ordered as asked.
Response line: I, III, II
(I: 0.0%, III: 50.2%, II: 78.6%)

----------
System: A549
method-description: Cell viability assay, A549 cells
Type: cell-based
test-conditions: Homo sapiens, A549, A549; unit printed as PM; read-out: IC50 for A549
observed-property: pIC50
// field semantics: pIC50 = negative decimal log of concentration (mol/L)

Prompt line: Notebook entry, A549 assay: pIC50 of `CN(C)C(=O)[C@H]1Cc2c([nH]c3ccccc23)[C@H](c2ccc(C(=O)N(CCC(=O)OC(C)(C)C)C(C)(C)C)cc2)N1C(=O)CCl` = ?
Response line: 6.10

----------
method-description: Whole blood stability, human
Format: in vitro ADME
test-conditions: 30 min
observed-property: Whole Blood Stability % Remaining at 37° C. Human (%)

# example entries with known answers
COC(=O)c1ccc([C@H]2c3[nH]c4ccc(Cl)cc4c3C[C@H](C(=O)OC)N2C(=O)CCl)cc1 :: 66.3
COC(=O)[C@H]1Cc2c([nH]c3ccccc23)[C@@H](c2ccc(C(=O)NCCN3CCOCC3)cc2)N1C(=O)CCl [Example 27a] :: 54.1

(a) COC(=O)[C@H]1Cc2c([nH]c3ccccc23)[C@H](c2ccc(C(=O)NCC3CC3)cc2)N1C(=O)CCl
(b) [2H]C([2H])([2H])OC(=O)[C@H]1Cc2c([nH]c3ccccc23)[C@H](c2ccc(C(=O)OC(C)(C)C)cc2)N1C(=O)CCl
Prompt line: Parameter metric = Whole Blood Stability % Remaining at 37° C. Human. Return the lower-valued option from a and b . Choose, then provide that item's label.
Response line: a

(A) CN(C)C(=O)[C@H]1Cc2c([nH]c3ccccc23)[C@H](c2ccc(NC(=O)OC(C)(C)C)cc2)N1C(=O)CCl
(B) COC(=O)[C@H]1Cc2c([nH]c3ccccc23)[C@H](c2ccc(OC(=O)C(C)(C)C)cc2)N1C(=O)CCl
Prompt line: Parameter metric = Whole Blood Stability % Remaining at 37° C. Human. Return the lower-valued option from A and B . Choose, then provide that item's label.
Response line: B

----------
Test system: REC-1
method-description: Cell viability assay (CellTiter Glo), lymphoma cell line REC-1
Format: cell-based
test-conditions: Homo sapiens, Rec1, 96 hours
observed-property: IC50 (nM)

COC(=O)c1ccc([C@H]2c3[nH]c4ccccc4c3C[C@H](C(=O)OC)N2C(=O)CCl)cc1 [Example K601, RSL3, reference compound] :: 227
C[C@H]1Cc2c([nH]c3ccccc23)[C@H](c2ccc(C3CCCCC3)cc2)N1C(=O)CCl [Example 110] :: 96
C[C@H]1Cc2c([nH]c3ccccc23)[C@H](c2ccc(S(=O)(=O)N[C@]34CC5C[C@H](C[C@H](C5)C3)C4)cc2)N1C(=O)CCl [Example 101] :: 191
COC(=O)[C@H]1Cc2c([nH]c3ccccc23)[C@H](c2ccc(NCC3CC3)cc2)N1C(=O)CCl [Example 83] :: 516
C[C@H]1Cc2c([nH]c3ccccc23)[C@H](c2ccc([Si](C)(C)C)cc2)N1C(=O)CCl [Example 106] :: 156

(a) COC(=O)[C@H]1Cc2c([nH]c3ccccc23)[C@H](c2ccc(S(=O)(=O)N[C@]34C[C@H]5C[C@H](C[C@H](C5)C3)C4)cc2)N1C(=O)CCl [Example 24]
(b) CC[C@H]1Cc2c([nH]c3ccccc23)[C@H](c2ccc(C(=O)OC)cc2)N1C(=O)CCl [Example 98]
Prompt line: Parameter metric = IC50. Return the lower-valued option from a and b . Choose, then provide that item's label.
Response line: a
(a: 33 nM, b: 61 nM)

----------
System: MiaPaCa-2
method-description: Cell viability assay (CellTiter Glo), pancreatic carcinoma MiaPaCa-2
Format: cell-based
test-conditions: Homo sapiens, MIA PaCa-2; pancreatic carcinoma, 96 hours, CellTiter Glo; read-out: IC50 MiaPaCa-2
pIC50: −log10 of the molar value.
observed-property: pIC50

# example entries with known answers
COC(=O)[C@H]1Cc2c([nH]c3ccccc23)[C@H](c2ccc(C(=O)OC[C@]34C[C@H]5C[C@H](C[C@H](C5)C3)C4)cc2)N1C(=O)CCl [Example 6] :: 7.26
CN(C)C(=O)[C@H]1Cc2c([nH]c3ccccc23)[C@H](c2ccc(NC(=O)OC(C)(C)C)cc2)N1C(=O)CCl [Example 56] :: 6.12

(a) COC(=O)[C@H]1Cc2c([nH]c3ccccc23)[C@H](c2ccc(O)cc2)N1C(=O)CCl [Example 265]
(b) CN(C)C(=O)[C@H]1Cc2c([nH]c3ccccc23)[C@H](c2ccc(C(=O)OC(C)(C)C)cc2)N1C(=O)CCl [Example 21]
(c) CN(C)C(=O)[C@H]1Cc2c([nH]c3ccccc23)[C@H](c2ccc(S(C)(=O)=O)cc2)N1C(=O)CCl [Example 59]
Prompt line: Which order do these items take when sorted by rising pIC50? List them. Answer format: list of labels, ordered as asked.
Response line: c, a, b
(c: 6.23, a: 6.61, b: 7.19)

(A) COC(=O)[C@H]1Cc2c([nH]c3ccccc23)[C@H](c2ccc(C(=O)NC(C)(C)C)cc2)N1C(=O)CCl [Example 9]
(B) COC(=O)[C@H]1Cc2c([nH]c3ccccc23)[C@H](c2ccc(OC(C)=O)cc2)N1C(=O)CCl [Example 12]
Prompt line: Endpoint returns the identifier whose pIC50 is numerically larger, either A or B . Choose, then provide that item's label.
Response line: A
(A: 7.92, B: 7.16)

----------
# IC50 per record follows
System: MCF-10A
method-description: Cell viability assay (CellTiter Glo), non-tumorigenic breast epithelial cell line MCF-10A
Type: cell-based
test-conditions: Homo sapiens, 96 hours
# output: bare number, implied unit µM

# example entries with known answers
[2H]C([2H])([2H])OC(=O)[C@H]1Cc2c([nH]c3ccccc23)[C@H](c2ccc(C(=O)OC(C)(C)C)cc2)N1C(=O)CCl :: 0.47
COC(=O)c1ccc([C@H]2c3[nH]c4ccc(Br)cc4c3C[C@H](C(=O)OC)N2C(=O)CCl)cc1 :: 0.46
C[C@H]1Cc2c([nH]c3ccccc23)[C@H](c2ccc(S(=O)(=O)N[C@]34CC5C[C@H](C[C@H](C5)C3)C4)cc2)N1C(=O)CCl :: 1.07

Prompt line: Which IC50 value is on record for `CC(C)OC(=O)[C@H]1Cc2c([nH]c3ccccc23)[C@H](c2ccc(C(=O)OC(C)(C)C)cc2)N1C(=O)CCl` ?
Response line: 0.82

Prompt line: Which IC50 value is on record for `COC(=O)[C@H]1Cc2c([nH]c3ccccc23)[C@H](c2ccc(C(=O)NCCN3CCOCC3)cc2)N1C(=O)CCl` ?
Response line: 9.41

Prompt line: Which IC50 value is on record for `COC(=O)[C@H]1Cc2c([nH]c3ccccc23)[C@H](c2ccc(C(=O)N3CCOCC3)cc2)N1C(=O)CCl` ?
Response line: 3.97

Prompt line: Which IC50 value is on record for `CC(C)(C)OC(=O)c1ccc([C@H]2c3[nH]c4ccccc4c3C[C@H](C(=O)OC(C)(C)C)N2C(=O)CCl)cc1` ?
Response line: 0.43

Prompt line: Which IC50 value is on record for `CN(C)C(=O)[C@H]1Cc2c([nH]c3ccccc23)[C@H](c2ccc(S(C)(=O)=O)cc2)N1C(=O)CCl` ?
Response line: 8.78

Prompt line: Which IC50 value is on record for `COC(=O)[C@H]1Cc2c([nH]c3ccccc23)[C@H](c2ccc(OC(C)=O)cc2)N1C(=O)CCl` ?
Response line: 1.42

Prompt line: Which IC50 value is on record for `COC(=O)[C@H]1Cc2c([nH]c3ccccc23)[C@H](c2ccc(C(=O)OCC3(C)CC3)cc2)N1C(=O)CCl` ?
Response line: 0.48

Prompt line: Which IC50 value is on record for `CC[C@H]1Cc2c([nH]c3ccccc23)[C@H](c2ccc(C(=O)OC)cc2)N1C(=O)CCl` ?
Response line: 0.92

Prompt line: Which IC50 value is on record for `COC(=O)[C@H]1Cc2c([nH]c3ccccc23)[C@H](c2ccc(S(=O)(=O)NCC3CC3)cc2)N1C(=O)CCl` ?
Response line: 3.74

Prompt line: Which IC50 value is on record for `COC(=O)[C@H]1Cc2c([nH]c3ccccc23)[C@H](c2ccc(C(=O)OC(C)(C)C)cc2)N1C(=O)CCl` ?
Response line: 0.85

Prompt line: Which IC50 value is on record for `COC(=O)[C@H]1Cc2c([nH]c3ccccc23)[C@H](c2ccc(C(=O)OCC3CCCC3)cc2)N1C(=O)CCl` ?
Response line: 0.33
